Cited source for all entries: the NIST ThermoML archive (doi:10.1016/j.fluid.2010.02.020)

- condition-context: 393.6 K, Pendant drop shape
attribute-measured: surface tension liquid-gas (mN/m)
Report only the number, with the unit mN/m understood.

Example results:
{"columns": ["chemical-structure", "units-text", "measured-number"],
 "data": [
  ["CCCC[n+]1ccn(C)c1.O=S(=O)([N-]S(=O)(=O)C(F)(F)F)C(F)(F)F", "mN/m", 25.9],
  ["CCCCCCCCCCCCn1cc[n+](C)c1.O=S(=O)([N-]S(=O)(=O)C(F)(F)F)C(F)(F)F", "mN/m", 23.6],
  ["CCCCCCCCn1cc[n+](C)c1.O=S(=O)([N-]S(=O)(=O)C(F)(F)F)C(F)(F)F", "mN/m", 25.3]
]}

Now for another entry.
May I ask what surface tension liquid-gas has been recorded for CCCCCCCCCCCCCCn1cc[n+](C)c1.O=S(=O)([N-]S(=O)(=O)C(F)(F)F)C(F)(F)F ?
21.5

---

Let's look at some molecules and their measured mass density.
- condition-context: 313.15 K; 101.33 kPa; Liquid; Vibrating tube method
Report only the number, with the unit kg/m3 understood.

Example results:
{"columns": ["chemical-structure", "units-text", "mass density"],
 "data": [
  ["CCCCCCCCC[n+]1ccn(C)c1.O=S(=O)([N-]S(=O)(=O)C(F)(F)F)C(F)(F)F", "kg/m3", 1285.5],
  ["CCCCCC[n+]1ccn(C)c1.O=S(=O)([N-]S(=O)(=O)C(F)(F)F)C(F)(F)F", "kg/m3", 1359.8],
  ["CCCn1cc[n+](C)c1.O=S(=O)([N-]S(=O)(=O)C(F)(F)F)C(F)(F)F", "kg/m3", 1461.1],
  ["CCCCCCCCCCn1cc[n+](C)c1.O=S(=O)([N-]S(=O)(=O)C(F)(F)F)C(F)(F)F", "kg/m3", 1267.4]
]}

Now for another entry.
May I ask what mass density has been recorded for CCCCCn1cc[n+](C)c1.O=S(=O)([N-]S(=O)(=O)C(F)(F)F)C(F)(F)F ?
1389.4

---

- condition-context: 353.15 K; 101.33 kPa; Liquid; Vibrating tube method
Let's look at some compounds and their measured mass density.
Report only the number, with the unit kg/m3 understood.

Example results:
{"columns": ["chemical-structure", "mass density (kg/m3)"],
 "data": [
  ["CCCCCCCn1cc[n+](C)c1.O=S(=O)([N-]S(=O)(=O)C(F)(F)F)C(F)(F)F", 1296.3],
  ["CCn1cc[n+](C)c1.O=S(=O)([N-]S(=O)(=O)C(F)(F)F)C(F)(F)F", 1466.4],
  ["CCCCCCCCn1cc[n+](C)c1.O=S(=O)([N-]S(=O)(=O)C(F)(F)F)C(F)(F)F", 1273.9],
  ["CCCC[n+]1ccn(C)c1.O=S(=O)([N-]S(=O)(=O)C(F)(F)F)C(F)(F)F", 1386.3],
  ["CCCCCCCCC[n+]1ccn(C)c1.O=S(=O)([N-]S(=O)(=O)C(F)(F)F)C(F)(F)F", 1251.3]
]}

May I ask what mass density has been recorded for CCCCCn1cc[n+](C)c1.O=S(=O)([N-]S(=O)(=O)C(F)(F)F)C(F)(F)F ?
1353.1

May I ask what mass density has been recorded for CCCCCCCCCCCCn1cc[n+](C)c1.O=S(=O)([N-]S(=O)(=O)C(F)(F)F)C(F)(F)F ?
1199.2

May I ask what mass density has been recorded for CCCCCCCCCCn1cc[n+](C)c1.O=S(=O)([N-]S(=O)(=O)C(F)(F)F)C(F)(F)F ?
1233.5

May I ask what mass density has been recorded for CCCCCCCCCCCCCCn1cc[n+](C)c1.O=S(=O)([N-]S(=O)(=O)C(F)(F)F)C(F)(F)F ?
1168.5

May I ask what mass density has been recorded for CCCCCC[n+]1ccn(C)c1.O=S(=O)([N-]S(=O)(=O)C(F)(F)F)C(F)(F)F ?
1324

May I ask what mass density has been recorded for CCCn1cc[n+](C)c1.O=S(=O)([N-]S(=O)(=O)C(F)(F)F)C(F)(F)F ?
1422.9

---

- condition-context: 393.15 K; 101.33 kPa; Liquid; Vibrating tube method
attribute-measured: mass density (kg/m3)
Report only the number, with the unit kg/m3 understood.

Example results:
{"columns": ["chemical-structure", "units-text", "measured-number"],
 "data": [
  ["CCCCCCCCCCCCCCn1cc[n+](C)c1.O=S(=O)([N-]S(=O)(=O)C(F)(F)F)C(F)(F)F", "kg/m3", 1136.4],
  ["CCCn1cc[n+](C)c1.O=S(=O)([N-]S(=O)(=O)C(F)(F)F)C(F)(F)F", "kg/m3", 1384.9]
]}

May I ask what mass density has been recorded for CCCCCn1cc[n+](C)c1.O=S(=O)([N-]S(=O)(=O)C(F)(F)F)C(F)(F)F ?
1316.8

May I ask what mass density has been recorded for CCCC[n+]1ccn(C)c1.O=S(=O)([N-]S(=O)(=O)C(F)(F)F)C(F)(F)F ?
1349.4

May I ask what mass density has been recorded for CCCCCCCCC[n+]1ccn(C)c1.O=S(=O)([N-]S(=O)(=O)C(F)(F)F)C(F)(F)F ?
1217.4

May I ask what mass density has been recorded for CCCCCCCCCCCCn1cc[n+](C)c1.O=S(=O)([N-]S(=O)(=O)C(F)(F)F)C(F)(F)F ?
1166.2

May I ask what mass density has been recorded for CCCCCCCCCCn1cc[n+](C)c1.O=S(=O)([N-]S(=O)(=O)C(F)(F)F)C(F)(F)F ?
1200

May I ask what mass density has been recorded for CCCCCC[n+]1ccn(C)c1.O=S(=O)([N-]S(=O)(=O)C(F)(F)F)C(F)(F)F ?
1288.5

---

- condition-context: 413.15 K; 101.33 kPa; Liquid; Vibrating tube method
Let's look at some molecules and their measured mass density.
Report only the number, with the unit kg/m3 understood.

{"columns": ["chemical-structure", "units-text", "measured-number"],
 "data": [
  ["CCCCCCCCCCCCCCn1cc[n+](C)c1.O=S(=O)([N-]S(=O)(=O)C(F)(F)F)C(F)(F)F", "kg/m3", 1120.4],
  ["CCCCCn1cc[n+](C)c1.O=S(=O)([N-]S(=O)(=O)C(F)(F)F)C(F)(F)F", "kg/m3", 1298.4],
  ["CCCn1cc[n+](C)c1.O=S(=O)([N-]S(=O)(=O)C(F)(F)F)C(F)(F)F", "kg/m3", 1365.6]
]}

May I ask what mass density has been recorded for CCCCCC[n+]1ccn(C)c1.O=S(=O)([N-]S(=O)(=O)C(F)(F)F)C(F)(F)F ?
1270.6

May I ask what mass density has been recorded for CCCCCCCCCCCCn1cc[n+](C)c1.O=S(=O)([N-]S(=O)(=O)C(F)(F)F)C(F)(F)F ?
1150.2

May I ask what mass density has been recorded for CCCCCCCCC[n+]1ccn(C)c1.O=S(=O)([N-]S(=O)(=O)C(F)(F)F)C(F)(F)F ?
1200.3

May I ask what mass density has been recorded for CCn1cc[n+](C)c1.O=S(=O)([N-]S(=O)(=O)C(F)(F)F)C(F)(F)F ?
1407.5

May I ask what mass density has been recorded for CCCCCCCn1cc[n+](C)c1.O=S(=O)([N-]S(=O)(=O)C(F)(F)F)C(F)(F)F ?
1243.8

May I ask what mass density has been recorded for CCCCCCCCCCn1cc[n+](C)c1.O=S(=O)([N-]S(=O)(=O)C(F)(F)F)C(F)(F)F ?
1183.3

May I ask what mass density has been recorded for CCCC[n+]1ccn(C)c1.O=S(=O)([N-]S(=O)(=O)C(F)(F)F)C(F)(F)F ?
1330.7

May I ask what mass density has been recorded for CCCCCCCCn1cc[n+](C)c1.O=S(=O)([N-]S(=O)(=O)C(F)(F)F)C(F)(F)F ?
1222.2

---

- condition-context: 333.3 K, Pendant drop shape
± gives the expanded uncertainty stated by the source.
Let's look at some compounds and their measured surface tension liquid-gas.
The reply should consist of the numeric value with the unit placed after it.

May I ask what surface tension liquid-gas has been recorded for CCn1cc[n+](C)c1.O=S(=O)([N-]S(=O)(=O)C(F)(F)F)C(F)(F)F ?
33.6 ± 1.1 mN/m

May I ask what surface tension liquid-gas has been recorded for CCCCCCCCCCn1cc[n+](C)c1.O=S(=O)([N-]S(=O)(=O)C(F)(F)F)C(F)(F)F ?
27 ± 1.1 mN/m

May I ask what surface tension liquid-gas has been recorded for CCCCCCCCn1cc[n+](C)c1.O=S(=O)([N-]S(=O)(=O)C(F)(F)F)C(F)(F)F ?
28.2 ± 1.1 mN/m

May I ask what surface tension liquid-gas has been recorded for CCCCCCCCCCCCn1cc[n+](C)c1.O=S(=O)([N-]S(=O)(=O)C(F)(F)F)C(F)(F)F ?
26.4 ± 1 mN/m
